These measurements were taken from ChEMBL document CHEMBL4229385.

Documented MIC across a set of molecules
Test system: Pseudomonas aeruginosa
protocol.description: Antibacterial activity against Pseudomonas aeruginosa PAO1 by agar dilution method
Format: functional
Where a SMILES comes first, the peptide text is derived from it. Bridges are numbered along the chain shown (N, C = ends). [ ]: non-standard residue; d: D form. The star is where a group is joined. Benzoyl(4-Ph) = O=C(c1ccc(-c2ccccc2)cc1)*; Bip = N[C@@H](Cc1ccc(-c2ccccc2)cc1)C(=O)O; Dab = NCC[C@H](N)C(=O)O
Return type: number; implicit unit µg/mL.

• C[C@@H](O)[C@@H]1NC(=O)[C@H](CCN)NC(=O)[C@H](CCN)NC(=O)[C@H](Cc2ccccc2)NC(=O)[C@@H](Cc2ccccc2)NC(=O)[C@H](CCN)NC(=O)[C@@H](NC(=O)[C@H](CCN)NC(=O)[C@@H](NC(=O)[C@H](CCN)NC(=O)c2cccc(-c3ccccc3)c2)[C@@H](C)O)CCNC1=O = 8

In the following, a different molecule is considered.
Q: For the molecule C[C@@H](O)[C@@H]1NC(=O)[C@H](CCN)NC(=O)[C@H](CCN)NC(=O)[C@H](Cc2ccc(-c3ccccc3)cc2)NC(=O)[C@@H](Cc2ccccc2)NC(=O)[C@H](CCN)NC(=O)[C@@H](NC(=O)[C@H](CCN)NC(=O)[C@@H](NC(=O)[C@H](CCN)NC(=O)c2ccc(-c3ccccc3)cc2)[C@@H](C)O)CCNC1=O ({Benzoyl(4-Ph)}-[Dab]T[Dab][Dab][Dab][dF][Bip][Dab][Dab]T; lactam 4-C) , what MIC is on record?
Ans: 16
